Test system: UO-31 renal
test summary: NCI-60 one-dose screen, 48 h (100 = growth as untreated, 0 = no growth, -100 = all killed)
protocol conditions: 10 µM unless noted
Compounds without any hit were thinned out: in the full panel of roughly 83,000, 20% have a hit.
test readout: growth (%)
Unit % implied. Number only.

{"mol": "N/C(=N\\C(N)=N\\c1nc2ccccc2s1)c1ccc(Cl)cc1", "test readout": "growth", "measured": 73.1}
{"mol": "CC(=C(c1ccc(OCCN(C)C)cc1)c1ccc(OCCN(C)C)cc1)c1ccc(Cl)cc1", "test readout": "growth", "measured": -64.8}

growth reported for this compound COc1ccc(/C(=N\N=C(N)N)c2ccc(Cl)cc2)cc1OC : 83.7

growth reported for this compound Clc1ccc2c(N/N=C/c3c[nH]c4ccccc34)ccnc2c1 : -95.1

growth reported for this compound COc1ccc(-c2cnc(NC(=O)CCCCCCNC(=O)C(O)(O)C(F)(F)F)s2)cc1 : -27.4

growth reported for this compound Cc1ccc(C(=O)Nc2ccc(CNCCN3CCOCC3)c(C(F)(F)F)c2)cc1C#Cc1cnc2cccnn12 : 19

growth reported for this compound CCc1cc(O)ccc1Nc1cc(-c2ccc(-n3cccn3)cc2)[nH]n1 : 50.9

growth reported for this compound O=c1[nH][nH]c(-c2ccc(F)cc2)c1-c1nc2ccccc2s1 : 87.3

growth reported for this compound Cc1ccsc1[C@H]1c2[nH]c3ccccc3c2C[C@H]2C(=O)N(CCCCCCC(=O)NO)CC(=O)N12 : 75.6

growth reported for this compound CC(=O)Nc1ccccc1-c1nc2ccccc2s1 : 89.1

---

Test system: ACHN renal
test summary: NCI-60 one-dose screen, 48 h (100 = growth as untreated, 0 = no growth, -100 = all killed)
protocol conditions: 10 µM unless noted
Compounds without any hit were thinned out: in the full panel of roughly 83,000, 20% have a hit.
test readout: growth (%)
Unit % implied. Number only.

growth reported for this compound O=C(O)CC1CCN(c2ccc3nnc(Cl)n3n2)CC1 : 98.6

growth reported for this compound C#CCN(C)CCCOc1ccc(NCc2ccc(C(=O)NO)cc2)cc1Cl : 9.03

growth reported for this compound CN1CCN(c2ccc(Nc3nc(NCCCNS(=O)(=O)c4ccc(F)cc4)c4sccc4n3)cc2)CC1 : 70.4

growth reported for this compound CC(=O)OCCCCN1C=C/C(=C\C(=O)n2ccc3ccccc32)c2ccccc21 : 94.8

growth reported for this compound CCN(CC)CCOc1ccc(C(=C(C)c2ccc(OC)cc2)c2ccc(OCCN(CC)CC)cc2)cc1 : -34.1

growth reported for this compound COc1ccc2[nH]cc(/C=N/Nc3ccnc4cc(Cl)ccc34)c2c1 : -100

growth reported for this compound COc1ccc2[nH]cc(-c3nn4cc(-c5ccncc5)nc4s3)c2c1 : 57.5

growth reported for this compound O=C1[C@@H]2Cc3c([nH]c4ccccc34)[C@@H](c3ccc(Cl)cc3)N2C(=O)CN1C1CCN(Cc2c(F)cccc2F)CC1 : 28

growth reported for this compound Cc1ccc(NC(=O)Nc2nc3ccc([N+](=O)[O-])cc3s2)cc1 : 1.63

growth reported for this compound CCCC[n+]1ccc(SCC(=O)n2ccc3ccccc32)c2ccccc21 : 104

growth reported for this compound O=C(CSc1nnc(-c2ccc(Cl)cc2)n1-c1ccccc1)Nc1ccc(Cl)cc1 : -2.97

growth reported for this compound Nc1cc(C(=O)N/N=C\c2ccc(OC(F)F)c(OC3CCCC3)c2)nn1CC(O)c1ccccc1 (stereo not drawn) : 105

growth reported for this compound N#Cc1c(-c2ccc(F)cc2)cc(-c2c[nH]c3ccccc23)nc1-c1c[nH]c2ccccc12 : 102

growth reported for this compound CC1=Cc2ccccc2OC12C=Cc1ccccc1O2 (stereo not drawn) : 88.4

growth reported for this compound N#Cc1c(-c2cccs2)cc(-c2cnccn2)nc1SCC(=O)N/N=C/c1ccccc1 : 56.9

---

Tested on: OVCAR-5 ovarian
test summary: NCI-60 one-dose screen, 48 h (100 = growth as untreated, 0 = no growth, -100 = all killed)
protocol conditions: 10 µM unless noted
This is part of a sample that, as a whole, favours compounds with a hit. Of some 83,000 tested, about 20% had one in any assay.
Consider the following compounds and their measured growth readings.
Unit % implied. Number only.

{"compound": "CC1=C(C)C(=O)C(Nc2ccc(C)c(C)c2)=C(Br)C1=O", "growth, %": 111}
{"compound": "CCC1=Cc2c(OC)cccc2OC12C=Cc1c(OC)cccc1O2 (stereo not given)", "growth, %": 36.5}
{"compound": "Cc1cc(Br)ccc1-n1cc(C#N)c(N)c1C(=O)c1ccc(Br)cc1", "growth, %": 114}
{"compound": "CN1CCN(Cc2ccc(NC(=O)c3cncc(C#Cc4cnc5ccc(OCC(F)F)nn45)c3)cc2C(F)(F)F)CC1", "growth, %": -47.1}
{"compound": "N#C/C(=N\\Nc1ccc(F)cc1)C(=O)Nc1cc(-c2ccccc2)nn1-c1ccccc1", "growth, %": 19.8}
{"compound": "C=C(C=O)[C@@H]1CC[C@]2(C(=O)O)CC[C@]3(C)C(CC[C@@H]4[C@@](C)(CCC#N)[C@H](C(=C)C=O)CC[C@]43C)[C@@H]12 (stereo not given in full)", "growth, %": 127}
{"compound": "CN(C)CCNc1ccc2ncc(C#Cc3cncc(C(=O)Nc4ccc(CN5CCN(C)CC5)c(C(F)(F)F)c4)c3)n2n1", "growth, %": 11.4}
{"compound": "CN1c2ccccc2Sc2cc(/C=N/Nc3ccnc4cc(Cl)ccc34)ccc21", "growth, %": 106}

growth reported for this compound CN1CCN(c2ccc(Nc3nc(NCCCNS(=O)(=O)c4cccc(F)c4)c4sccc4n3)cc2)CC1 : 73.4

growth reported for this compound Brc1cccc(-c2cc(-c3cnc4c(c3)OCCO4)n[nH]2)c1 : 72.3

growth reported for this compound C#CCN(C)CCCOc1ccc(NC(=O)CCCCCCC(=O)NO)cc1Cl : 12.8

growth reported for this compound CN1CCN(Cc2ccc(NC(=O)c3cncc(C#Cc4cnc(N)nc4)c3)cc2C(F)(F)F)CC1 : 29.6

growth reported for this compound O=C(CCCCCC/C=C\c1csc(Br)n1)NO : 80.1

growth reported for this compound CN(C)CCCOc1ccc(C(=C(c2ccccc2)C2CCCC2)c2ccc(OCCCN(C)C)cc2)cc1 : -92.9

growth reported for this compound Cn1ncc2c(C(=O)c3ccc(F)cc3)nc(C(C)(C)C)nc21 : 98.2

growth reported for this compound Cc1ccc(C(=O)CSc2nc3ccccc3c(=O)n2C)cc1 : 105

growth reported for this compound NC(=O)c1ncn2c(=O)n(CCF)nnc12 : 85.1

growth reported for this compound Cc1ccc(S(=O)(=O)NCCCNc2nccc(-c3[nH]c(-c4ccccc4)nc3-c3ccc(F)c(O)c3)n2)cc1 : 143

growth reported for this compound O=C(Nc1ccc(N2CCOCC2)cc1)Nc1ccc2c(ccn2C(=O)c2cccc(F)c2)c1 : 99.3

growth reported for this compound NCCNC(=O)c1cccc(COc2ccccc2NC(=O)c2cc(Br)c(Br)[nH]2)c1 : 101

---

Tested on: HCT-116 colon
test summary: NCI-60 one-dose screen, 48 h
protocol conditions: 10 µM unless noted
About 83,000 compounds went through this panel and 20% of them were active in at least one assay; those are over-represented in the sample as a whole. The source made the active and inactive calls. How the source made its calls: active means growth percent below 10; inactive means the rest.
Hello, when you answer, please use one of the following outcomes: active, inactive

Check out these entries, answers already filled in.
{"mol": "O=C1[C@@H]2Cc3c([nH]c4ccccc34)[C@@H](c3ccc(Cl)cc3)N2C(=O)CN1C1CCN(Cc2ccccc2)CC1", "label value": "active"}
{"mol": "Cc1ccc(S(=O)(=O)c2nc(-c3ccc(F)cc3)oc2S(C)(=O)=O)cc1", "label value": "inactive"}
{"mol": "Cc1ccc(C(=O)Nc2ccc(CNCCN3CCOCC3)c(C(F)(F)F)c2)cc1C#Cc1cnc2cccnn12", "label value": "active"}
{"mol": "C#C[C@]1(O)CC[C@H]2[C@@H]3CC=C4c5sc(NCc6ccccc6)nc5CC[C@]4(C)[C@H]3CC[C@@]21C", "label value": "inactive"}
{"mol": "CCCCCCN1C=C/C(=C\\C(=O)n2ccc3ccccc32)c2ccccc21", "label value": "inactive"}
{"mol": "CCCN1C=C/C(=C\\C(=O)n2ccc3ccccc32)c2ccccc21", "label value": "inactive"}

Record lookup: outcome of this test for CN(C)CCNc1ccc2ncc(C#Cc3cncc(C(=O)Nc4ccc(CN5CCN(C)CC5)c(C(F)(F)F)c4)c3)n2n1 ?
active

Record lookup: outcome of this test for CCOC(=O)c1cccc(NC2=C(Cl)C(=O)c3nc(C)ccc3C2=O)c1 ?
inactive

Record lookup: outcome of this test for COc1ccc(/C(=N\NC(N)=S)c2ccc(Cl)cc2)cc1OC ?
inactive

Record lookup: outcome of this test for C#CCOc1cccc(/C(N)=N/C(N)=N/c2nc3ccccc3s2)c1 ?
inactive

Record lookup: outcome of this test for O=C(Nc1ccc(N=Cc2c(O)[nH]c3ccccc23)cc1)Nc1ccc(S(=O)(=O)Nc2ncccn2)cc1 ?
inactive

Record lookup: outcome of this test for CC[C@H](CC[C@@H](C)[C@H]1CC[C@H]2[C@@H]3CC(=O)C4=CC(=O)/C(=C/c5ccc([N+](=O)[O-])cc5)C[C@]4(C)[C@H]3CC[C@]12C)C(C)C ?
inactive

Record lookup: outcome of this test for Cc1ccsc1[C@H]1c2[nH]c3ccccc3c2C[C@H]2C(=O)N(CCCCCCC(=O)NO)CC(=O)N12 ?
inactive

Record lookup: outcome of this test for Cc1ccc2c(n1)C(=O)C(Cl)=C(Nc1ccccc1C(=O)OC(C)(C)C)C2=O ?
active

Record lookup: outcome of this test for COc1ccc(/C(=N\N=C(N)N)c2ccc(Cl)cc2)cc1OC ?
inactive

Record lookup: outcome of this test for COC(=O)N1CCN(CCNCc2ccc(NC(=O)c3ccc(C)c(C#Cc4cnc5cccnn45)c3)cc2C(F)(F)F)CC1 ?
active

Record lookup: outcome of this test for COC(=O)c1cccc(NC2=C(Cl)C(=O)c3nc(C)ccc3C2=O)c1 ?
inactive

Record lookup: outcome of this test for O=S(=O)(NCCCNc1nccc(-c2[nH]c(-c3ccccc3)nc2-c2ccc(F)c(O)c2)n1)c1cccc2ccccc12 ?
inactive

Ref: PubChem BioAssay (NCI)
